Source of measurements: paper PMC6230509

system name: UniProt:P28221
Sequence (P28221 whole entry): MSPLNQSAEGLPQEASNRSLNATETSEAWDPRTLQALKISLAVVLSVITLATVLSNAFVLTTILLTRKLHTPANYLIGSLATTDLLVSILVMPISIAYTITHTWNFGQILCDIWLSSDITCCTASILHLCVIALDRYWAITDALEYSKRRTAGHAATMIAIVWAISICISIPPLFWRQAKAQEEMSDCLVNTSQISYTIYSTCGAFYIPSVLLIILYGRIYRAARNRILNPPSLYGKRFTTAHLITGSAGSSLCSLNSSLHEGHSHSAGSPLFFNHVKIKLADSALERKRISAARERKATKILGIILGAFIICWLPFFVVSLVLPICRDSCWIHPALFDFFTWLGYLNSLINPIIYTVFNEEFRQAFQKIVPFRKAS
experimental details: NIMH PDSP radioligand competition binding, 5-HT1D
pKi: −log10 of the molar value.
Everything with pKi lower than 6 is f; everything else, including exactly 6, is t.

>>> df
                                 smiles_str     system_name  class
0         C=CCN(CC=C)CCc1c[nH]c2c(CC)cccc12  UniProt:P28221      f
1  C=CCN(CC=C)CCc1c(-c2ccccc2)[nH]c2ccccc12  UniProt:P28221      t
2       C=CCN(CC=C)CCc1c(C)[nH]c2ccc(F)cc12  UniProt:P28221      f
